- assayTarget: Cytochrome P450 3A4 (Homo sapiens, UniProt P08684)
- Sequence (P08684 whole entry): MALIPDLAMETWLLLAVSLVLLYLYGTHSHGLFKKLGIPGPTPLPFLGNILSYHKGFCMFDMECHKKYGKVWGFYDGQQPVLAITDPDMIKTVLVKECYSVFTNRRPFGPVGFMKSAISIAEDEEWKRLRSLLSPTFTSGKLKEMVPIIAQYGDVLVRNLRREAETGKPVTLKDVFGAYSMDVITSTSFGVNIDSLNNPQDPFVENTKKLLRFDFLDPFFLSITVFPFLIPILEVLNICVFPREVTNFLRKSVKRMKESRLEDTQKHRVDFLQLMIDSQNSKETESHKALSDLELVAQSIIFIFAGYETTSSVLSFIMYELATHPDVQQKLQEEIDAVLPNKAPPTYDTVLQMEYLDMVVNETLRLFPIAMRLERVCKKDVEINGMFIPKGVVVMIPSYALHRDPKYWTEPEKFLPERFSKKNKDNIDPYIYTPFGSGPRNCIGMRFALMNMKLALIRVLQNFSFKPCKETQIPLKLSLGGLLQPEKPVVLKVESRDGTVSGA
- protocolNotes: Inhibition of CYP3A4
- Type: ADME
measuredEndpoint: IC50 (µM)
Numbers only; they are read as µM.

Notebook entry, Cytochrome P450 3A4 (Homo sapiens, UniProt P08684) assay: IC50 of Cc1cccc(C)c1-c1nc2ccc(C(=O)Nc3ccc4ccccc4n3)cc2[nH]1 = ? 7.3

###

- assayTarget: Cytochrome P450 3A4 (Homo sapiens)
- protocolNotes: Inhibition of CYP3A4 in human liver microsome measured after 30 mins preincubation in presence of NADPH
- Type: ADME, microsomes
measuredEndpoint: IC50 (nM)
Numbers only; they are read as nM.

Please look up its IC50: Cc1cccc(C)c1-c1nc2ccc(C(=O)Nc3ccc4ccccc4n3)cc2[nH]1 2700
